Tested on: CDC2L2
Details: concentration: 1 μM,replicates: in singlicate; n = 1;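 also: KINOMEscan kinase panel screen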
valueKind: %Inh (%)

| chemicalString | observedValue |
| --- | --- |
| C=CC(=O)Nc1cc2c(Nc3ccc(F)c(Cl)c3)ncnc2cc1OCCCN1CCOCC1 | 0 |
| CC(C)Nc1cc(-c2ccc3c(N)n[nH]c3c2)nc(N)n1 | 0 |
| Cl.Cl.NC[C@H](Cc1ccc(C(F)(F)F)cc1)NC(=O)c1cc(Br)c(-c2ccnc3[nH]ccc23)s1 | 0 |
| O=C(NCCCN1CCOC1=O)c1cnc(NCc2cc(Cl)ccc2Cl)nc1NC1CCCC1 | 0 |

----------
Test system: CDKL5
Conditions: concentration: 1 μM,replicates: in singlicate; n = 1
# maps each entry to its %Inh

| molecule | valueUnit | %Inh |
| --- | --- | --- |
| CC(C)Nc1cc(-c2ccc3c(N)n[nH]c3c2)nc(N)n1 | % | 0 |
| CN(C)CCOc1ccc(-c2cc(-c3c[nH]nc3-c3ccccn3)ccn2)cc1 | % | 1 |
| C[C@@H]1CCN(C(=O)CC#N)C[C@@H]1N(C)c1ncnc2[nH]ccc12 | % | 0 |
| CCN(CC)CCCCNc1ncc2cc(-c3c(Cl)cccc3Cl)c(NC(=O)NC(C)(C)C)nc2n1 | % | 0 |
| CC(C)N1C(=O)Cc2cc(Nc3ncc(C(F)(F)F)c(NCc4cccc(S(C)(=O)=O)c4)n3)ccc21 | % | 1 |
| Cc1occc1-c1nc(N)c(OC[C@@H](N)Cc2c[nH]c3ccccc23)cc1-c1cc2c(C)n[nH]c2cn1 | % | 47 |
| Cl.Cl.NC[C@H](CC1CCCCC1)NC(=O)c1cc(Br)c(-c2ccnc3[nH]ccc23)s1 | % | 0 |
| COc1ccc(C[C@@H](CN)NC(=O)c2cc(Br)c(-c3ccnc4[nH]ccc34)s2)cc1.Cl.Cl | % | 95.5 |
| Cc1cc2cn[nH]c2cc1-c1cccc2c(N)c(C(N)=O)nnc12 | % | 6 |
| CN(C)CC(O)COc1ccc(Nc2nccc(-c3cnn4nc(N5CCOCC5)ccc34)n2)cc1 (stereo not drawn) | % | 98.2 |
| Cc1ccc2c(-c3ccncc3)c(-c3ccc(F)cc3)nn2c1.Cl | % | 0 |
| Cc1n[nH]c2ccc(-c3cc(OC[C@@H](N)Cc4ccccc4)cnc3-c3ccoc3)cc12.O=C(O)C(F)(F)F.O=C(O)C(F)(F)F | % | 0 |
| C=CC(=O)Nc1cc2c(Nc3ccc(F)c(Cl)c3)ncnc2cc1OCCCN1CCOCC1 | % | 1 |
| O=C(NCCNc1ccnc(NCc2ccc(F)cc2)n1)c1cc2ccccc2s1 | % | 0 |
| NC(=O)c1cc(-c2ccccc2)cc2c(C3CCNCC3)c[nH]c12 | % | 0 |
| Cc1ccc(-n2nc(C(C)(C)C)cc2NC(=O)Nc2ccc(OCCN3CCOCC3)c3ccccc23)cc1 | % | 4 |
| Nc1nc(Nc2ccccc2)cc(-c2ccc3c(N)n[nH]c3c2)n1 | % | 0 |
| Cl.Oc1cc(-c2nc(-c3ccccc3)[nH]c2-c2ccncc2)ccc1Cl | % | 2 |
| Cc1cc(C(=O)Nc2ccc(Oc3ccc4nc(NC(=O)C5CC5)cn4n3)cc2)nn1-c1ccccc1 | % | 0 |
| O=C(NCCCN1CCOC1=O)c1cnc(NCc2cc(Cl)ccc2Cl)nc1NC1CCCC1 | % | 0 |
| C[C@@H](Oc1cc(-c2cnn(C3CCNCC3)c2)cnc1N)c1c(Cl)ccc(F)c1Cl | % | 18 |
